Provenance of the data: PubChem BioAssay AID2380

- experimental protocol: inducers of MIN6 beta-cell proliferation, primary screen, ATP luminescence, uHTS (AID 2380)
- condition context: MIN6 cells proliferation, ATPlite luminescence, 48 h; at 10 µM; 100% = growth in 10% serum; cells starved in 0.2% serum
Screen size: about 330,000 compounds; about 960 (0.29%) were called active.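 Rule for the calls: active = compounds whose signal lies at least 3.5 SD above the mean of all wells on their plate; inactive = the rest.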 Only a selection was taken, and actives are over-represented in it overall.
Possible outcomes: TRUE for active, FALSE for inactive

{"columns": ["molecule", "category"],
 "data": [
  ["Cn1cc(-c2ccccc2)cc(C#N)c1=O", "FALSE"],
  ["COc1ccc(Cl)cc1S(=O)(=O)Nc1cccc(C(=O)O)c1", "FALSE"],
  ["OCc1ccc(-c2ccccc2)c(-c2ccccc2)c1", "FALSE"],
  ["CC1Cn2c(nnc2-c2cccs2)S1 (centres undefined)", "FALSE"],
  ["O=C(O)c1cc(S(=O)(=O)N(Cc2ccccc2)c2cccc(C(F)(F)F)c2)ccc1Cl", "FALSE"],
  ["O=[N+]([O-])c1ccc2c(c1)C(N1CCOCC1)/C(=C/C1(O)CCCCC1)O2 (centres undefined)", "FALSE"],
  ["CC1(C)Cc2c(sc(NC(=O)C(=O)NCC3CCCO3)c2C(=O)O)CO1 (centres undefined)", "FALSE"],
  ["CC(=O)c1cnc(-c2ccccc2)s1", "TRUE"],
  ["COc1ccccc1N(C)C(=O)c1cc(S(=O)(=O)N2CCc3ccccc32)cn1C", "FALSE"]
]}
